- test.description: Cytotoxic effect on Human Foreskin fibroblasts (SRB)
- Type: cell-based
- condition.context: HFF-1 cells
assay.endpoint: CC50 at 48 h (µM)
Numbers only, in µM.

Qu. Report CC50 at 48 h for CC1(C)c2[nH]c3ccc(C(F)(F)F)cc3c2C[C@]2(C)[C@H]3C(=O)C=C4[C@@H]5C[C@@](C)(C(=O)O)CC[C@]5(C)CC[C@@]4(C)[C@]3(C)CC[C@@H]12 [FC-114] please.
Ans. 59.5

====

- Tested on: streptozotocin-induced diabetic rats
- test.description: Oral glucose tolerance test in streptozotocin-induced diabetic rats
- Format: in vivo, Wistar rat
- Set-up: unit not given here
- condition.context: Week 6 (day 7 of treatment); same doses
assay.endpoint: AUC of the OGTT

Known results for compounds:
compound | AUC of the OGTT
C[C@H]1O[C@H](O[C@H]2[C@H](O)[C@@H](O)[C@@H](O[C@H]3[C@H](O)[C@@H](O)C(O)O[C@@H]3CO)O[C@@H]2CO)[C@H](O)[C@@H](O)[C@@H]1N[C@H]1C=C(CO)[C@@H](O)[C@H](O)[C@H]1O (some centres unmarked) [acarbose] | 81,507
CC1(C)c2[nH]c3ccc(C(F)(F)F)cc3c2C[C@]2(C)[C@H]3C(=O)C=C4[C@@H]5C[C@@](C)(C(=O)O)CC[C@]5(C)CC[C@@]4(C)[C@]3(C)CC[C@@H]12 [FC-114] | 62,944
CCc1ccc(CCOc2ccc(CC3SC(=O)NC3=O)cc2)nc1 (centres unmarked) [PIO, pioglitazone] | 43,584
Cc1ccc(-n2ncc3c2C(C)(C)[C@@H]2CC[C@]4(C)[C@H](C(=O)C=C5[C@@H]6C[C@@](C)(C(=O)O)CC[C@]6(C)CC[C@]54C)[C@@]2(C)C3)cc1 [FC-122] | 57,003

Qu. Could you share what AUC of the OGTT was measured for COc1ccc(Cl)cc1C(=O)NCCc1ccc(S(=O)(=O)NC(=O)NC2CCCCC2)cc1 [glibenclamide] , tested on streptozotocin-induced diabetic rats?
Ans. 67,311
